Heads up, these molecules all have IC50 values measured for P450 2B4 wild type (Oryctolagus cuniculus, UniProt P00178).
readout-label: IC50

1. Clc1ccc(-c2c[nH]cn2)cc1 :: 40 nM
2. c1ccc(-c2ccc(C(c3ccccc3)n3ccnc3)cc2)cc1 (centres unmarked) :: 900 nM

====

Molecular target: P450 2B4 L437A (Oryctolagus cuniculus, UniProt P00178, L437A)
Sequence (P00178 with tags, fused parts or gaps L437A limits assumed): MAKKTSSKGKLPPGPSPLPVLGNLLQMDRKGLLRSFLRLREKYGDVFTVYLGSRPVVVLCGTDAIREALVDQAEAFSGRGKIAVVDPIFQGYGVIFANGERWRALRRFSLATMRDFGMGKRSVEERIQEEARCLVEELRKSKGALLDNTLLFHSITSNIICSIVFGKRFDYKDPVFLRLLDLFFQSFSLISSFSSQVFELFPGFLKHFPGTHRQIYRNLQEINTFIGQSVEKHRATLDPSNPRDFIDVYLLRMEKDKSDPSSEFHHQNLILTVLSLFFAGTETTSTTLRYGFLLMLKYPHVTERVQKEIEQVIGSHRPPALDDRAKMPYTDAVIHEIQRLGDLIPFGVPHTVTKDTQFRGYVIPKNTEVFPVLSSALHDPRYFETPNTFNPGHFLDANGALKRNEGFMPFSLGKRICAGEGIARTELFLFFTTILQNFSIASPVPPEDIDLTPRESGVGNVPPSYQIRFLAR
Test: Inhibition of 7-EFC O-deethylation by imidazole inhibitors
readout-label: IC50 (nM)

1) Clc1ccc(-c2c[nH]cn2)cc1 :: 970

====

Target: P450 2B4 E474D (Oryctolagus cuniculus, UniProt P00178, E474D)
Sequence (P00178 with tags, fused parts or gaps E474D limits assumed): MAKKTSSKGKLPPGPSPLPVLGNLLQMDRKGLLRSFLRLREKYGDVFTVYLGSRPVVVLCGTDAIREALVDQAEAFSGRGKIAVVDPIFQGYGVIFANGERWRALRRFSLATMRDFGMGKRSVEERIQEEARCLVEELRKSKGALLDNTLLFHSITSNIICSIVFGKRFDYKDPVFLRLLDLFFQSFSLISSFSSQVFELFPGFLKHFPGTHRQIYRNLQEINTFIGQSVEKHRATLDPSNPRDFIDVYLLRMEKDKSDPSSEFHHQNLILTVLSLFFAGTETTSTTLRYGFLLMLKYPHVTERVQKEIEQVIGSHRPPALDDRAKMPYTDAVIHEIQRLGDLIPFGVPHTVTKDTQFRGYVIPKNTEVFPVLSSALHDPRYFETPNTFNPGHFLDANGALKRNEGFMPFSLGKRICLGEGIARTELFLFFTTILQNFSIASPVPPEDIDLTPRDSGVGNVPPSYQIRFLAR
Assay: Inhibition of 7-EFC O-deethylation by imidazole inhibitors
pIC50: −log10 of the molar value.
readout-label: pIC50

1) Clc1ccc(-c2c[nH]cn2)cc1 [4-CPI, 4-(4-chlorophenyl)imidazole] :: 6.62
2) c1ccc(-c2ccc(C(c3ccccc3)n3ccnc3)cc2)cc1 (centres unmarked) [Bifonazole, bifonazole] :: 6.21

====

Recorded IC50 for the following compounds
Molecular target: P450 2B4 H172Q (Oryctolagus cuniculus, UniProt P00178, H172Q)
Sequence (P00178 with tags, fused parts or gaps H172Q limits assumed): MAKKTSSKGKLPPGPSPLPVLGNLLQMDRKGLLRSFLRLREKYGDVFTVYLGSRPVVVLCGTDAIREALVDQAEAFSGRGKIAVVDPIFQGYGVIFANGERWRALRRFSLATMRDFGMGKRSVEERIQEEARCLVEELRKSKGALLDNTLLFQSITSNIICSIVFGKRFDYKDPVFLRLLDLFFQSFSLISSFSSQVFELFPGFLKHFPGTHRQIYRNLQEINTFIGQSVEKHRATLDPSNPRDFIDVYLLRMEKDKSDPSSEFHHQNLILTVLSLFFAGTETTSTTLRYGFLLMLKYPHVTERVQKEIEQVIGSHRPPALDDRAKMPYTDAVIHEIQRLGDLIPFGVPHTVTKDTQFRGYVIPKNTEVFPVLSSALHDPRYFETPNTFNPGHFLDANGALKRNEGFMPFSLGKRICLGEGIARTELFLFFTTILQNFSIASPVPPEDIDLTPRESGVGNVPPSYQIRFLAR
Test: Inhibition of 7-EFC O-deethylation by imidazole inhibitors
readout-label: IC50

1) Clc1ccc(-c2c[nH]cn2)cc1 [4-CPI, 4-(4-chlorophenyl)imidazole] :: 220 nM
2) c1ccc(-c2ccc(C(c3ccccc3)n3ccnc3)cc2)cc1 (centres unmarked) [Bifonazole, bifonazole] :: 760 nM
